meta.source: patent US6706266

Molecular target: T1, gp130-Fc fusion protein (human, UniProt P40189 23-619)
T1 construct: extracellular domain; not shown: Fc fragment of human IgG1
T1 sequence (looked up): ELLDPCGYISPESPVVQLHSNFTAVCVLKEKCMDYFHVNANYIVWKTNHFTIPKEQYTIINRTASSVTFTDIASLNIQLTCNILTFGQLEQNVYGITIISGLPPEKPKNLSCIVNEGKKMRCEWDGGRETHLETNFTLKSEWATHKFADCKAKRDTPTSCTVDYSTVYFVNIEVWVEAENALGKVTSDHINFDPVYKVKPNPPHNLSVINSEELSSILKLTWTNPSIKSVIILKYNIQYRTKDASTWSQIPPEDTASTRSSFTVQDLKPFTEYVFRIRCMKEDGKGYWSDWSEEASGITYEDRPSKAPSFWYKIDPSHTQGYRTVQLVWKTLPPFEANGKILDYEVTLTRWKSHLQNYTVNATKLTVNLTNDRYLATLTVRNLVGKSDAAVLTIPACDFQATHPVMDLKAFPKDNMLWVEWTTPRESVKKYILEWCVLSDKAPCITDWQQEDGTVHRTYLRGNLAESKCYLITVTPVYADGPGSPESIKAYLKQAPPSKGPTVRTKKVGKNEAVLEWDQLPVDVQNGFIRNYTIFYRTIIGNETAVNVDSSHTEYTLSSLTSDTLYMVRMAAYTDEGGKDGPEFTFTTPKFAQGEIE
Assay: competition ELISA: OSM-GST titrated against plate-bound wt OSM for gp130-Fc; mean
This listing pairs binders with measured log10(IC50).
# log10 transformed; quantity=IC50; unit=µg/mL

Below: 2 binders and their reported log10(IC50).
- Binder: "OSM-GST mutant L13A (ligand, Alanine mutant of m4; also called (6)L13A; 6 L13A; not shown: Its linker is left out) AAIGSCSKEYRVALGQLQKQTDLMQDTSRLLDPYIRIQGLDVPKLREHCRERPGAFPSEETLRGLGRRGFLQTLNATLGCVLHRLADLEQRLPKAQDLERSGLNIEDLEKLQMARPNILGLRNNIYCMAQLLDNSDTAEPTKAGRGASQPPTPTPASDAFQRKLEGCRFLHGYHRFMHSVGRVFSKWGESPNRSRR"
  log10(IC50): 0.40
- Binder: "OSM-GST mutant L14A (ligand, Alanine mutant of m4; also called (7)L14A; 7 L14A; not shown: Its linker is left out) AAIGSCSKEYRVLAGQLQKQTDLMQDTSRLLDPYIRIQGLDVPKLREHCRERPGAFPSEETLRGLGRRGFLQTLNATLGCVLHRLADLEQRLPKAQDLERSGLNIEDLEKLQMARPNILGLRNNIYCMAQLLDNSDTAEPTKAGRGASQPPTPTPASDAFQRKLEGCRFLHGYHRFMHSVGRVFSKWGESPNRSRR"
  log10(IC50): -0.29

Task item: Give the reported log10(IC50) for this binder. OSM-GST mutant N124A (ligand, not shown: a dimerising Fc or GST; large carriers; small tags and cut ends, Alanine mutant of m4; also called (23)N124A; 23 N124A) AAIGSCSKEYRVLLGQLQKQTDLMQDTSRLLDPYIRIQGLDVPKLREHCRERPGAFPSEETLRGLGRRGFLQTLNATLGCVLHRLADLEQRLPKAQDLERSGLNIEDLEKLQMARPNILGLRNAIYCMAQLLDNSDTAEPTKAGRGASQPPTPTPASDAFQRKLEGCRFLHGYHRFMHSVGRVFSKWGESPNRSRR
Reply: 0.30

Task item: Give the reported log10(IC50) for this binder. OSM-GST mutant D26A (ligand, not shown: a dimerising Fc or GST; large carriers; small tags and cut ends, Alanine mutant of m4; also called (27)D26A; 27 D26A) AAIGSCSKEYRVLLGQLQKQTDLMQATSRLLDPYIRIQGLDVPKLREHCRERPGAFPSEETLRGLGRRGFLQTLNATLGCVLHRLADLEQRLPKAQDLERSGLNIEDLEKLQMARPNILGLRNNIYCMAQLLDNSDTAEPTKAGRGASQPPTPTPASDAFQRKLEGCRFLHGYHRFMHSVGRVFSKWGESPNRSRR
Reply: -0.51

Task item: Give the reported log10(IC50) for this binder. OSM-GST mutant Q25A (ligand, not shown: a dimerising Fc or GST; large carriers; small tags and cut ends, Alanine mutant of m4; also called (26)Q25A; 26 Q25A) AAIGSCSKEYRVLLGQLQKQTDLMADTSRLLDPYIRIQGLDVPKLREHCRERPGAFPSEETLRGLGRRGFLQTLNATLGCVLHRLADLEQRLPKAQDLERSGLNIEDLEKLQMARPNILGLRNNIYCMAQLLDNSDTAEPTKAGRGASQPPTPTPASDAFQRKLEGCRFLHGYHRFMHSVGRVFSKWGESPNRSRR
Reply: -1.36
